Exercise: state measured Bliss excess for each of the molecules provided.
# Tested on: KP-3 (Pancreatic Carcinoma)
# EXPERIMENT NOTES: Bliss excess, mean over the matrix (fraction); higher = more synergy;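 note: after 72 h of two-drug dosing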
Please respond with just the number, no unit label.

Provide only the value of recorded Bliss excess for Cc1c2c(nn1C)CSCc1cc(n(C)n1)CSc1cc(c3ccccc3c1)OCCCc1c(C(=O)O)n(C)c3c-2c(Cl)ccc13 [AZD5991] + Cc1cc2ncnn2cc1Nc1ncc2c(n1)n(C1CCOCC1)c(=O)n2C [AZD7648] (first compound max 1 µM, 7x7, partner max 10 µM)
-0.0462

Look up Bliss excess of N#Cc1cnc(Nc2cc(NC[C@H]3CNCCO3)c(C(F)(F)F)cn2)cn1 [SRA737] + C=CCn1c(=O)c2cnc(Nc3ccc(N4CCN(C)CC4)cc3)nc2n1-c1cccc(C(C)(C)O)n1 [AZD1775] (first compound max 10 µM, partner max 1 µM) and report it.
0.0086

In one line, give reported Bliss excess of the entry Cc1nc(Nc2ncc(C(=O)Nc3c(C)cccc3Cl)s2)cc(N2CCN(CCO)CC2)n1 [Dasatinib] + CC(=O)Nc1cccc(-n2c(=O)n(C3CC3)c(=O)c3c(Nc4ccc(I)cc4F)n(C)c(=O)c(C)c32)c1 [Trametinib] (first compound max 2 µM, 7x7, partner max 1 µM) .
0.0304

* * *

# System: CW-2 (Colorectal Carcinoma)
# EXPERIMENT NOTES: Bliss excess, mean over the matrix (fraction); higher = more synergy
Kindly supply the reported Bliss excess values for the records listed here.
Write the value as a bare number.

Give recorded Bliss excess. CCc1c2c(nc3ccc(O)cc13)-c1cc3c(c(=O)n1C2)COC(=O)[C@]3(O)CC [SN-38] + CN(C)CCCOc1ccc(-c2ccc3ncc4c(c3c2)n(C2CCOCC2)c(=O)n4C)cn1 [AZD0156] (first compound max 0.3 µM, 7x7, partner max 1 µM)
-0.0118

Give the reported Bliss excess for this compound. CN(CCO)CC[C@H](CSc1ccccc1)Nc1ccc(S(=O)(=O)NC(=O)c2ccc(N3CCC([C@@H](O)c4ccccc4-c4ccc(Cl)cc4)CC3)cc2)cc1S(=O)(=O)C(F)(F)F [AZD4320] + Cn1cnc2c(F)c(Nc3ccc(Br)cc3Cl)c(C(=O)NOCCO)cc21 [Selumetinib] (first compound max 1 µM, 7x7, partner max 3 µM)
0.0454

* * *

# Tested on: NCI-H3122 (Lung Adenocarcinoma)
# EXPERIMENT NOTES: Bliss excess, mean over the matrix (fraction); higher = more synergy
QUANTITY KIND: Bliss excess
API note: the answer field is a bare number with no unit suffix.

Write Bliss excess of CN(C)CCCOc1ccc(-c2ccc3ncc4c(c3c2)n(C2CCOCC2)c(=O)n4C)cn1 [AZD0156] + C=CCn1c(=O)c2cnc(Nc3ccc(N4CCN(C)CC4)cc3)nc2n1-c1cccc(C(C)(C)O)n1 [AZD1775] (first compound max 1 µM, partner max 1 µM) ; system used: NCI-H3122 (Lung Adenocarcinoma)
-0.0352

Answer briefly: Bliss excess recorded on NCI-H3122 (Lung Adenocarcinoma) for O=C(c1cc(Cc2n[nH]c(=O)c3ccccc23)ccc1F)N1CCN(C(=O)C2CC2)CC1 [Olaparib] + CN(CC[C@H](CSC1=CC=CC=C1)NC2=C(C=C(C=C2)S(=O)(=O)NC(=O)C3=CC=C(C=C3)N4CCC(CC4)[C@H](C5=CC=CC=C5C6=CC=C(C=C6)Cl)O)S(=O)(=O)C(F)(F)F)CCO [AZD4320] (first compound max 10 µM, 7x7, partner max 1 µM)
-0.0184
